System: T1, cynomolgus TIGIT over-expressed on CHO-K1 cells (cynomolgus, UniProt A0A7N9I9V4 89-312)
T1 construct: whole, on cells; also called CHO-K1/cynomolgus TIGIT cells
T1 sequence (A0A7N9I9V4 entry or part of it): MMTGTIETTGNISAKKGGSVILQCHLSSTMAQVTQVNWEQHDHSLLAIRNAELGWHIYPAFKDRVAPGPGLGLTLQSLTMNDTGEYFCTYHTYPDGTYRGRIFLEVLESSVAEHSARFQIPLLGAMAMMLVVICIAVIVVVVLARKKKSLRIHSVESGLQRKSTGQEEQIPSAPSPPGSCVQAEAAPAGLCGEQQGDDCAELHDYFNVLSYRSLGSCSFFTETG
Run Description: FACS, CHO-K1 cells over-expressing cynomolgus TIGIT
Assay Readout: Top (best-fit)

binder="64G1E9B4 chimeric (antibody, V domains shown, also called 64G1 Chimeric) VH: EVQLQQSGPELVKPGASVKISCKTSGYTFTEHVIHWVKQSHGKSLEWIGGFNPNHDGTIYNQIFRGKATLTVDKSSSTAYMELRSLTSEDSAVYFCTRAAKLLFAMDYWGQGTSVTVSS VL: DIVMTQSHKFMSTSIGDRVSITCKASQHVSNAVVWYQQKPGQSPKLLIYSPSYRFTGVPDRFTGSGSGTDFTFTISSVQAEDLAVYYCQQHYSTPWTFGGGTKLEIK" value_reported=25600
binder="100C4E7D11VH1_VL1 (antibody, V domains shown, Humanized antibody, variable domains fused with the constant region of human IgG1; also called 100C4VH1_VL1) VH: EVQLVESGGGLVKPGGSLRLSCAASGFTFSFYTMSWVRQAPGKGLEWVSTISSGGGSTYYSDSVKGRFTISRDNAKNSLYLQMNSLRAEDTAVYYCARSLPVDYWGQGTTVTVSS VL: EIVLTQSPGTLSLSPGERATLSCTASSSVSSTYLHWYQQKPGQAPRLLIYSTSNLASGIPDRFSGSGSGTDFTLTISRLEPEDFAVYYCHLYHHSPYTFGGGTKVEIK" value_reported=29800
binder="64G1E9B4VH1.M1_VL1.M1 (antibody, human IgG1, V domains shown, Humanized antibody, variable domains fused with the constant region of human IgG1; also called 64G1VH1.M1_VL1.M1) VH: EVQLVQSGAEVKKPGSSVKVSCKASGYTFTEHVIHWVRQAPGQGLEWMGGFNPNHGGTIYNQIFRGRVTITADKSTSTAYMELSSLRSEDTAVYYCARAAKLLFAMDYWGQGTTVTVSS VL: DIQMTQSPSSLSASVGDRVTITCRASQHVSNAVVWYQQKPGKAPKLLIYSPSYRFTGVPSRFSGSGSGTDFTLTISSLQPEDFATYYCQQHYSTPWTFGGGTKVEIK" value_reported=29200
